System: A498 renal
experiment: NCI tumour cell line growth inhibition, 48 h
Overview of recorded TGI for various molecules

molecule | experimental-target | TGI
O=[N+]([O-])c1cccc(-c2cn3c(n2)Cc2ccccc2C3)c1 | A498 renal | > 100 µM

Kindly state the measured TGI obtained for COc1cc([C@@H]2OC(=O)C3C2C(=O)O[C@H]3c2ccc(O)c(OC)c2)ccc1O (stereo partly specified) with A498 renal. > 100 µM

Fill in the recorded TGI for this molecule, with A498 renal as test system: O=C(O/N=c1/ccc(=O)/c(=N\OC(=O)c2ccccc2)c1=O)c1ccccc1 > 100 µM

# returns recorded TGI (system: A498 renal) for CC(=O)OC1CC(OC2C(O)CC(OC3C(O)CC(OC4CCC5(C)C(CCC6C5CCC5(C)C(C7=CC(=O)OC7)CCC65O)C4)OC3C)OC2C)OC(C)C1OC1OC(CO)C(O)C(O)C1O (stereo unspecified) 0.131 µM

Lab note: need TGI for O=C(N=Nc1c(Cl)c(O)c2ccccc2c1O)C(=O)Nc1cccc(C(F)(F)F)c1 on A498 renal, anyone have it? 23.6 µM

Lab note: need TGI with A498 renal for entry Cn1cc(C2=C(c3cc[nH]c3)C(=O)NC2=O)c2ccccc21 , please look it up. > 25 µM

----------
Test system: HL-60(TB) leukemia
experiment: NCI tumour cell line growth inhibition, 48 h
property-name: TGI (µM)
Report only the number, with the unit µM understood.

Requested read-out: TGI. Entry: CCCCCN(CCCCC)C(=O)[C@H](CCC(=O)O)NC(=O)c1cc2ccccc2[nH]1 61.8

Using the record for CC(=O)OC1CC(OC2C(O)CC(OC3C(O)CC(OC4CCC5(C)C(CCC6C5CCC5(C)C(C7=CC(=O)OC7)CCC65O)C4)OC3C)OC2C)OC(C)C1OC1OC(CO)C(O)C(O)C1O (configuration not stated) , report its TGI. 0.0827

Which TGI value belongs to O=C(N=Nc1c(Cl)c(O)c2ccccc2c1O)C(=O)Nc1cccc(C(F)(F)F)c1 ? 10.2

Entry CC(=O)c1c2c(cc3c1CC1(Cc4cc5c(cc4C1)C(=O)CCC5)C3)CCCC2 (configuration not stated) has what TGI? 4.17

Give the measured TGI of CC(C)(C)C1=CC(=C2C=Cc3cc(O)ccc3O2)C=C(C(C)(C)C)C1=O . 3.15

# TGI lookup, item COc1ccc(/C=C2\COc3ccc(O)c(O)c3C2=O)cc1OC 5.29

----------
// reported TGI per item
Tested on: UACC-257 melanoma
experiment: NCI tumour cell line growth inhibition, 48 h

Reference set, count: 10
compound | experimental-target | TGI
CCCS(=O)c1nc(COC(=O)NC)c(COC(=O)NC)n1C (stereo not given) | UACC-257 melanoma | > 100 µM
O=C(/C=C/c1ccccc1)c1cc(C(=O)/C=C/c2ccccc2)c(O)cc1O | UACC-257 melanoma | > 100 µM
O=C1c2ccn(CCCNC(CO)(CO)CO)c2C(=O)c2c1c(O)c1ccccc1c2O | UACC-257 melanoma | > 78.1 µM
CCN(CC)S(=O)(=O)c1cccc(-c2ccc3c(NC(=O)C4CC4)n[nH]c3c2)c1 | UACC-257 melanoma | > 6.25 µM
CN(CCCN1C(=O)c2cccc3cc([N+](=O)[O-])cc(c23)C1=O)CCN(C)CCCN1C(=O)c2cccc3cc([N+](=O)[O-])cc(c23)C1=O | UACC-257 melanoma | > 39.3 µM
Cc1cc2c(nn1)CCc1c-2no[n+]1[O-] | UACC-257 melanoma | > 100 µM
CCOC(=O)C(=O)Nc1c(C)cccc1C(C)(C)C | UACC-257 melanoma | > 100 µM
C=CCSC1=N/C(=C\c2ccc(OC)cc2)C(=O)N1CC=C | UACC-257 melanoma | 58.4 µM
CSc1nnc(-c2cc3c([nH]c4ccccc43)c(-c3cccc(O)c3)n2)n1-c1ccc(C)cc1 | UACC-257 melanoma | 44.7 µM
CC(=O)CCc1ccc(Oc2c3c(nc4ccccc24)OCC3)cc1 | UACC-257 melanoma | 30.2 µM

TGI for CC(C)(O)CCc1cccc(C(=O)c2cnn(-c3ccc(F)cc3)c2N)c1 ? > 25 µM

Requested read-out: TGI. Entry: CN(C)CC1C(=O)O[C@H]2[C@H]1CC/C(COC(=O)NCc1ccc(Cn3c(=O)sn(CCCI)c3=O)cc1)=C\CC[C@@]1(C)O[C@@H]21 (stereo not given in full) 11.7 µM

Which TGI is listed for CCCCCCc1cc2cc(-c3cn4c(n3)sc3ccccc34)c(=O)oc2cc1O ? > 100 µM

Endpoint output: TGI of CC(C)c1[nH]nc2c(NCc3ccc(-c4ccccn4)cc3)nc(SCCN(C)C)nc12 . Value? 0.0826 µM

Dear colleague, I am looking for the recorded TGI of the following compound: CCN(CC)/[N+]([O-])=N/OCOC > 100 µM

What TGI value was documented for this compound, CC(=O)O[C@@H]1C2=C(C)C3(CC3)[C@@](C)(O)C(=O)C2=C[C@@]1(C)CO ? 5.38 µM

// TGI lookup, key: CCCCCCCCC(C)CCCCCCCCC(=O)OCC(COP(=O)([O-])OCC[N+](C)(C)C)OC(=O)CCCCCCCCC(C)CCCCCCCC (stereo not given) > 100 µM

----------
Entries and their TGI values follow.
System: OVCAR-4 ovarian
experiment: NCI tumour cell line growth inhibition, 48 h

Previously resolved entries follow.
compound | property-name | result
CC(=O)N1C(CCc2ccccc2)CC(C)(C=O)C1Cc1ccc(O[Si](C(C)C)(C(C)C)C(C)C)cc1 (configuration not stated) | TGI | 16.8 µM
CC1CC(=NC2CCCCC2)Nc2ccccc2N1Cc1ccccc1 (configuration not stated) | TGI | 20.2 µM

# get_value(readout='TGI', item= Cc1cc(N(CCC#N)CCC#N)ccc1/C=C(\NC(=O)/C=C/c1ccccc1)C(=O)Nc1ccc(Cl)cc1 ) > 100 µM

Find the recorded TGI belonging to CCOC(=O)c1csc(C(CSCc2ccc(OC)cc2)N2C(=O)c3ccccc3C2=O)n1 (configuration not stated) and report it. > 100 µM

Which TGI is reported for this compound? COc1ccc(-c2c(-c3ccccc3)c(C)nc3[nH]c(=S)[nH]c(=S)c23)cc1OC > 100 µM

Consider the compound C=C1C2CC3CCC2C(OC(=O)c2ccccc2C(=O)O)C13 (configuration not stated) and give its measured TGI. > 100 µM

Name the recorded TGI for c1csc(-c2ccc(CNc3c4ccccc4nc4ccccc34)cc2)c1 . 3.07 µM

May I ask what TGI has been recorded for COC(=O)C12C34C=CC5(CCC6(C=CC1(CC3)O6)C52C(=O)OC)O4 (configuration not stated) ? > 100 µM

----------
Test system: HL-60(TB) leukemia
experiment: NCI tumour cell line growth inhibition, 48 h
property-name: TGI (µM)
All answers are understood in µM, so give the number only.

Record excerpt, results attached:
compound | numeric-result
CC(=O)[CH-]C(=O)c1ccccc1.CC(=O)[CH-]C(=O)c1ccccc1.CC[C@H](/C=C/C(C)[C@H]1CCC2[C@@H]3CC=C4C[C@@H]([O-])CC[C@]4(C)C3CC[C@@]21C)C(C)C.CC[C@H](/C=C/C(C)[C@H]1CCC2[C@@H]3CC=C4C[C@@H]([O-])CC[C@]4(C)C3CC[C@@]21C)C(C)C.Cl.[Ti+4] (stereo not given in full) | 16.6
c1cc(C2CCCCC2)ccc1-c1cnc2nonc2n1 | 1.52

Now examine the next entry.
Value lookup for TGI; key = O=[N+]([O-])C(C(Cl)=C(Cl)Cl)=C(n1nnc2ccccc21)n1nnc2ccccc21 13.5

----------
Item-by-item account of TGI
Test system: SF-268 CNS
experiment: NCI tumour cell line growth inhibition, 48 h

Some solved cases for reference:
compound | experimental-target | TGI
C(=C\c1ccncc1)/c1ccncc1 | SF-268 CNS | > 100 µM
CC(=O)NC1CC(C(C)(C)NC(C)=O)CC=C1C (stereo unspecified) | SF-268 CNS | > 100 µM
COc1ccc(/C=C2\COc3ccc(O)c(O)c3C2=O)cc1OC | SF-268 CNS | 5.64 µM

Quick one: TGI of CCO[C@@]12CCC3CC4CC[C@@](OCC)(O1)C4C32 (stereo partly specified) ? > 100 µM

Quick one: TGI of CCOC(=O)CC(=O)Nc1cccc2sc3ncccc3c(=O)c12 ? > 100 µM

Recorded TGI of CC(C)c1[nH]nc2c(NCc3ccc(-c4ccccn4)cc3)nc(SCCN(C)C)nc12 , please. 3.68 µM

For CC(=O)N1C(=O)c2cc3ccccc3cc21 , what is its reported TGI? > 100 µM

Could you share which TGI value was measured for CC(NP(=O)(c1ccccc1)c1ccccc1)c1ccccc1 (stereo unspecified) ? > 100 µM

Every entry's value here was drawn from PubChem BioAssay (NCI).
